Data provenance is PubChem BioAssay AID1347426.

procedure.details: Novel Modifiers of Survival Motor Neuron (SMN) Protein: Gene Identification via Genome-wide siRNA Screen;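 note: luminescence tracks full-length SMN protein made from the SMN2 reporter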
particulars: HEK293T SMN2-luciferase reporter, siRNA knockdown, 72 h; actives lie on both sides
The campaign covered roughly 31,000 sequences. About 1,400 (4.5%) were called active.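 Rule for the calls: active = median seed-adjusted z-score above 1 or below -1; inactive = the rest.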 Many of the other results were omitted from the sample, so actives are more common in it than they were.
Outcome codes: label 1 (active), label 0 (inactive)

# chain.sequence, qualitative.label
rows = [
    ("CAGCUGUACCGAUUAAGCATT against MEP1A", "label 0"),
    ("AGAUCAUUGCUUUCAGUGATT against PRDX1", "label 0"),
    ("GAAUGUAUCAGCUACCGAUTT against HYAL4", "label 0"),
    ("CAGAGGUACUCCACGCAGATT against BHLHA15", "label 0"),
    ("GAUCCGCACGGACUGCUUUTT against ACVRL1", "label 0"),
    ("AGAUGAGAACUCUAAGCAATT against CHRM2", "label 0"),
    ("GCAAGUAUUUUGACAAGGUTT against KIF7", "label 0"),
    ("GAGAUGCGCAAAUUCACUCTT against IP6K2", "label 0"),
    ("GCAUGUAAUGAGUAUCACATT against MRS2", "label 1"),
    ("GGAGUUACUCCAUUAACUATT against JARID1C", "label 0"),
    ("GAAGAAACCUUGACAAAAATT against KHDRBS3", "label 0"),
    ("CGCCUUAUACUUUACCAAATT against MGC16703", "label 0"),
    ("GACUUAACCAAGAGACGUATT against THOC2", "label 1"),
    ("GACUAGUUUUGAUCAGGAATT against ZBTB5", "label 0"),
    ("GGGUAUGAGAUAUGCGGUATT against TYW1", "label 0"),
    ("CCCAUUCCCUGUGCUCCAATT against CARD10", "label 0"),
    ("GGUCUAACUCAAUAAUGGATT against REV3L", "label 0"),
    ("CAGCCCGUUUUGAAGGGUATT against CRIP3", "label 1"),
    ("GAGGAAUUGUUGAUAAAGATT against MAGI2", "label 0"),
    ("CGAAGCUAGUGGAACAGUATT against SF3A1", "label 1"),
    ("CAACCUUGCGGCAUGCAAATT against PRSSL1", "label 0"),
    ("GAGUUUCGCCUGCUACAGATT against CELSR3", "label 0"),
    ("CACCUAUAGUGACGAUAUATT against MEP1B", "label 1"),
    ("GGUCUACUUCUACUACAAUTT against UTY", "label 0"),
    ("AGAGAAUCCAGGAUCAGAATT against CHIT1", "label 0"),
    ("CCUCAUAUGUGGGACAGAATT against USP3", "label 0"),
    ("CAAUCGAACGUAAACAACATT against ADD3", "label 0"),
    ("GCUAGAACGGGAACGAAGATT against NEK10", "label 0"),
    ("CAACGGUAAUUAUCAGUCATT against FABP7", "label 0"),
    ("GCAUGUCCCGAAAACAAGATT against KLF7", "label 0"),
    ("GGAGAUGCACAACAUCUUATT against PIP4K2B", "label 0"),
]
